Cited source: patent US20180057604A1

# Lookup of reported EC50 keyed by entry
- test-system: T1, human TfR extracellular domain with N-terminal His tag (human, UniProt P02786 89-760)
- T1 construct: Biotinylated in some assays; also called huTfR; HuTfR
- T1 sequence (P02786 89-760 G142S): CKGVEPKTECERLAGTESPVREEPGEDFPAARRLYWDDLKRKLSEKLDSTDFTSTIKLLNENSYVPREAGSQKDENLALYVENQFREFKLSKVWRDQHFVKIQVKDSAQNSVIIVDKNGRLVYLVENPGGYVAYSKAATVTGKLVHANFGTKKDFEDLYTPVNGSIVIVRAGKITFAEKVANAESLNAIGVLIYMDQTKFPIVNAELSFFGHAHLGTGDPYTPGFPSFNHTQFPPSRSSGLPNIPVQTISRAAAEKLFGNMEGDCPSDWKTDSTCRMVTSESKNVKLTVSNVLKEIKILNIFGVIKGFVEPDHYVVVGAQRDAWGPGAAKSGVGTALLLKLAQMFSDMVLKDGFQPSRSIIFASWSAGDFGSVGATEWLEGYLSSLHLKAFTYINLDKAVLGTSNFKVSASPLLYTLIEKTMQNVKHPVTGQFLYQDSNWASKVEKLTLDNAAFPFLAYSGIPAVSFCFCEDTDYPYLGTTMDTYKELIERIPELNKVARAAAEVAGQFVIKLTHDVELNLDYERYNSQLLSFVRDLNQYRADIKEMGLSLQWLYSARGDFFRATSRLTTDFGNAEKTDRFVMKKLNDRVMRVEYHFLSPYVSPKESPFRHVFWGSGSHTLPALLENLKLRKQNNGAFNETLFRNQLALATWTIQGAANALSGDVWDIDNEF
- procedure-text: ELISA, TfR-coated plate, IgG in culture supernatant;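 further: human or cynomolgus TfR coated at 2 µg/mL, supernatant IgG titrated in 1:5 steps for 1 h, bound antibody read with HRP anti-human Fcγ and TMB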
The answer is to be given in ng/mL; state only the numeric part.

>  <binder>
hu15G11.v5 IgG Ala variant L54A (HVR-L2) (antibody, V domains shown, IgG in cell culture supernatant) VH: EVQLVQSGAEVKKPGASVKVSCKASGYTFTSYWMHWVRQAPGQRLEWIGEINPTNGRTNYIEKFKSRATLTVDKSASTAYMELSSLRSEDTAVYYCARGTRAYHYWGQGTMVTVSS VL: DIQMTQSPSSLSASVGDRVTITCRASDNLYSNLAWYQQKPGKSPKLLVYDATNAADGVPSRFSGSGSGTDYTLTISSLQPEDFATYYCQHFWGTPLTFGQGTKVEIK

>  <readout-kind>
EC50

>  <numeric-value>
0.4

$$$$

// fetch EC50 given entry hu15G11.v5 IgG Ala variant S65A (HVR-H2) (antibody, name in Kabat numbering, V domains shown, IgG in cell culture supernatant; Kabat numbers after 52a lie one below the linear count) VH: EVQLVQSGAEVKKPGASVKVSCKASGYTFTSYWMHWVRQAPGQRLEWIGEINPTNGRTNYIEKFKARATLTVDKSASTAYMELSSLRSEDTAVYYCARGTRAYHYWGQGTMVTVSS VL: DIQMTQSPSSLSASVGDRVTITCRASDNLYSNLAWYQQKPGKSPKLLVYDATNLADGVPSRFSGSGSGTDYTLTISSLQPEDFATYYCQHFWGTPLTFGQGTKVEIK
0.2
